Hello, the source for this data is paper PMC6268972, in case you need it.

System: Candida albicans
protocol text: Microtiter plate dilution MIC, C. albicans
Assay type: cell-based
condition summary: Candida albicans, ATCC90028; ATCC 90028, malt extract broth, 24 h, 100% inhibition; read-out: Minimum inhibitory concentration (MIC) C.a
Consider the following molecules; for each one, report its MIC.
Kindly provide the numeric value in µg/mL only, without the unit symbol.

If you can, please state the reported MIC value of COc1c(-c2ccc(O)c(O)c2)oc2cc(O)cc(O)c2c1=O [3-O-Methylquercetin] .
250

If you can, please state the reported MIC value of COc1cc(-c2oc3cc(O)cc(O)c3c(=O)c2OC)ccc1O [3,3′-di-O-Methylquercetin] .
250
